System: DU-145
Procedure Text: Antiproliferative activity against human DU145 cell line
Assay type: functional
Observed Property: GI50 (µM)

COc1cc2c3c(oc(=O)c2cc1OC)-c1ccccc1C3=O 100
O=C1c2ccccc2-c2c1c1ccccc1c(=O)n2CCCn1ccnc1 1.41
O=C1c2ccccc2-c2c1c1ccc([N+](=O)[O-])cc1c(=O)n2CCN1CCOCC1 61.7
COc1cc2c3c(n(CCCN(C)C)c(=O)c2cc1OC)-c1ccccc1C3=O 4.47
CN(C)CCCn1c2c(c3cc4c(cc3c1=O)OCO4)C(=O)c1ccccc1-2 2.04

====

Tested on: OVCAR-3
Procedure Text: Antiproliferative activity against human OVCAR-3 cell line
Format: functional
With a cut-off of 30 µM, any GI50 strictly below it is called 1 (yes); any GI50 meeting it or above is called 0 (no).

CN(C)CCCn1c2c(c3cc4c(cc3c1=O)OCO4)C(=O)c1ccccc1-2 1 (yes)
COc1cc2c(=O)oc3c(c2c(OC)c1OC)C(=O)c1ccccc1-3 0 (no)
O=C1c2ccccc2-c2oc(=O)c3cc4c(cc3c21)OCO4 0 (no)
O=C1c2ccccc2-c2c1c1ccc([N+](=O)[O-])cc1c(=O)n2CCN1CCOCC1 0 (no)
O=C1c2ccccc2-c2c1c1ccccc1c(=O)n2CCCn1ccnc1 1 (yes)
CN(C)CCCn1c2c(c3ccc([N+](=O)[O-])cc3c1=O)C(=O)c1ccccc1-2 1 (yes)
COc1cc2c3c(oc(=O)c2cc1OC)-c1ccccc1C3=O 0 (no)
COc1cc2c3c(n(CCN4CCOCC4)c(=O)c2cc1OC)-c1ccccc1C3=O 0 (no)
O=C1c2ccccc2-c2oc(=O)c3cc([N+](=O)[O-])ccc3c21 0 (no)
COc1cc2c3c(n(CCCN(C)C)c(=O)c2cc1OC)-c1ccccc1C3=O 1 (yes)

====

System: MDA-MB-435
Procedure Text: Antiproliferative activity against human MDA-MB-435 cell line
Type: functional
Observed Property: GI50

O=C1c2ccccc2-c2oc(=O)c3cc4c(cc3c21)OCO4 > 100 µM
COc1cc2c3c(oc(=O)c2cc1OC)-c1ccccc1C3=O 100 µM
COc1cc2c3c(n(CCCN(C)C)c(=O)c2cc1OC)-c1ccccc1C3=O 7.08 µM
O=C1c2ccccc2-c2oc(=O)c3cc([N+](=O)[O-])ccc3c21 > 100 µM
COc1cc2c(=O)oc3c(c2c(OC)c1OC)C(=O)c1ccccc1-3 > 100 µM
O=C1c2ccccc2-c2c1c1ccc([N+](=O)[O-])cc1c(=O)n2CCN1CCOCC1 > 100 µM
CN(C)CCCn1c2c(c3ccc([N+](=O)[O-])cc3c1=O)C(=O)c1ccccc1-2 > 100 µM
CN(C)CCCn1c2c(c3cc4c(cc3c1=O)OCO4)C(=O)c1ccccc1-2 3.02 µM
COc1cc2c3c(n(CCN4CCOCC4)c(=O)c2cc1OC)-c1ccccc1C3=O > 100 µM
